- test: Selectivity index, ratio of CC50 for uninfected human MT4 cells to EC50 for wild type HIV 1 3B infected in human MT4 cells
- Format: toxicity, cell-based
- measurement setup: uninfected and infected with wild type HIV-1 3B, read-out: Ratio CC50/EC50
Reported selectivity ratio by item:
Lab note: jot down the number only; don't add units.

Guide cases for selectivity ratio, answers given:
COc1ccccc1CNc1ccnc(Nc2ccc(C#N)cc2)n1
937
N#Cc1ccc(Nc2nccc(NCc3ccccc3F)n2)cc1
1080

Consider the additional compound presented here.
query: May I ask what selectivity ratio has been recorded for N#Cc1ccc(Nc2nccc(NCc3ccccc3Cl)n2)cc1 ?
result: 18600

---

- test: Cytotoxicity against uninfected human MT4 cells assessed as decrease in cell viability after 5 days by MTT assay
- Format: cell-based
Lab note: anything with CC50 at 120 h below 3 µM is marked Criterion met; values at 3 µM or higher are marked Criterion not met.

Solved entries (count: 3):
N#Cc1ccc(Nc2nccc(NCc3cccc(Br)c3)n2)cc1
Criterion met
N#Cc1ccc(Nc2nccc(NCc3ccccc3C(F)(F)F)n2)cc1
Criterion not met
N#Cc1ccc(Nc2nccc(NCc3ccc(Br)cc3)n2)cc1
Criterion not met

query: Quick check: does N#Cc1ccc(Nc2nccc(NCc3ccccc3Br)n2)cc1 have CC50 at 120 h under 3 µM?
result: Criterion not met

query: I'd appreciate it if you could check whether Cc1ccc(CNc2ccnc(Nc3ccc(C#N)cc3)n2)cc1 has CC50 at 120 h smaller than 3 µM.
result: Criterion met

query: Below 3 µM on CC50 at 120 h? Entry N#Cc1ccc(Nc2nccc(NCc3cccc(Cl)c3)n2)cc1
result: Criterion met

---

pIC50 values by entry
- target or system: Human immunodeficiency virus type 1 reverse transcriptase (Human immunodeficiency virus 1, UniProt Q72547)
- test: Inhibition of recombinant HIV1 Reverse transcriptase p66/p51 using poly (rA)-oligo (dT) as template primer after 40 mins by spectrofluorometric analysis
Bear in mind: pIC50 is minus log10 of a mol/L concentration; give just that figure.

These solved cases illustrate the format of a correct answer.
Cc1ccc(CNc2ccnc(Nc3ccc(C#N)cc3)n2)cc1C
8.05
N#Cc1ccc(Nc2nccc(NCc3ccc(Cl)cc3)n2)cc1
7.32
N#Cc1ccc(Nc2nccc(NCc3ccccc3Br)n2)cc1
7.15
N#Cc1ccc(Nc2nccc(NCc3ccc(C(F)(F)F)cc3)n2)cc1
7.15
N#Cc1ccc(Nc2nccc(NCc3ccc(F)cc3F)n2)cc1
7.25

query: Which pIC50 value belongs to COc1ccc(CNc2ccnc(Nc3ccc(C#N)cc3)n2)cc1 ?
result: 7.07

query: Query (compound): N#Cc1ccc(Nc2nccc(NCc3ccc(F)cc3)n2)cc1 ; field requested: pIC50
result: 6.42

query: Query (compound): N#Cc1ccc(Nc2nccc(NCc3cccc(C(F)(F)F)c3)n2)cc1 ; field requested: pIC50
result: 6.91

query: Look up pIC50: Cc1ccc(CNc2ccnc(Nc3ccc(C#N)cc3)n2)cc1
result: 7.89

query: Could you share which pIC50 value was measured for N#Cc1ccc(Nc2nccc(NCc3cccc(F)c3)n2)cc1 ?
result: 7.80

---

- System: Human immunodeficiency virus 1
- test: Antiviral activity against HIV 1 RES056 harboring reverse transcriptase K103N/Y181C double mutant infected in human MT4 cells assessed as protection against virus-induced cytopathogenicity after 5 days by MTT assay
- Type: functional, organism-based
- measurement setup: Human immunodeficiency virus 1, RES056, MT4, 120 h
Measured EC50, listed per entry for reference.

N#Cc1ccc(Nc2nccc(NCc3ccccc3F)n2)cc1
> 0.88 µg/mL
N#Cc1ccc(Nc2nccc(NCc3ccccc3)n2)cc1
> 0.48 µg/mL
N#Cc1ccc(Nc2nccc(NCc3cccc(F)c3)n2)cc1
> 0.45 µg/mL

query: Short answer please: EC50, Human immunodeficiency virus 1, entry COc1ccc(CNc2ccnc(Nc3ccc(C#N)cc3)n2)cc1
result: > 0.78 µg/mL

---

- test: Selectivity index, ratio of CC50 for uninfected human MT4 cells to EC50 for wild type HIV 1 3B infected in human MT4 cells
- Type: toxicity, cell-based
- measurement setup: uninfected and infected with wild type HIV-1 3B, read-out: Ratio CC50/EC50
measured attribute: selectivity ratio
Note: the reply should be a number with no unit written.

N#Cc1ccc(Nc2nccc(NCc3cccc(C(F)(F)F)c3)n2)cc1
9
N#Cc1ccc(Nc2nccc(NCc3ccccc3C(F)(F)F)n2)cc1
107
COc1cccc(CNc2ccnc(Nc3ccc(C#N)cc3)n2)c1
518
N#Cc1ccc(Nc2nccc(NCc3cccc(Cl)c3)n2)cc1
175
N#Cc1ccc(Nc2nccc(NCc3ccc(C(F)(F)F)cc3)n2)cc1
24
N#Cc1ccc(Nc2nccc(NCc3ccc(F)cc3)n2)cc1
23
COc1ccc(CNc2ccnc(Nc3ccc(C#N)cc3)n2)cc1
60

API: the following record is the query input.
query: Any idea what its selectivity ratio is? The compound is N#Cc1ccc(Nc2nccc(NCc3cccc(Br)c3)n2)cc1
result: 86

---

- test: Cytotoxicity against uninfected human MT4 cells assessed as decrease in cell viability after 5 days by MTT assay
- Assay type: cell-based
measured attribute: CC50 at 120 h (µM)
Report the figure in µM without appending any unit label.

N#Cc1ccc(Nc2nccc(NCc3ccc(C(F)(F)F)cc3)n2)cc1
3.01
N#Cc1ccc(Nc2nccc(NCc3ccc(Cl)cc3)n2)cc1
3.28
N#Cc1ccc(Nc2nccc(NCc3ccc(F)cc3)n2)cc1
1.72

Now for another entry.
query: What value of CC50 at 120 h has been reported for the following molecule? N#Cc1ccc(Nc2nccc(NCc3ccccc3F)n2)cc1
result: 2.76

---

- target or system: Human immunodeficiency virus type 1 reverse transcriptase (Human immunodeficiency virus 1)
- test: Inhibition of recombinant HIV1 Reverse transcriptase p66/p51 using poly (rA)-oligo (dT) as template primer after 40 mins by spectrofluorometric analysis
Response field label takes true when IC50 is strictly below 20 nM and false in all other cases.

COc1cccc(CNc2ccnc(Nc3ccc(C#N)cc3)n2)c1
true
N#Cc1ccc(Nc2nccc(NCc3cccc(Cl)c3)n2)cc1
true
N#Cc1ccc(Nc2nccc(NCc3cccc(Br)c3)n2)cc1
false
N#Cc1ccc(Nc2nccc(NCc3ccccc3Cl)n2)cc1
false
N#Cc1ccc(Nc2nccc(NCc3ccccc3C(F)(F)F)n2)cc1
false

query: Given N#Cc1ccc(Nc2nccc(NCc3ccccc3F)n2)cc1 , is recorded IC50 strictly lower than 20 nM?
result: true

query: Is IC50 of COc1ccccc1CNc1ccnc(Nc2ccc(C#N)cc2)n1 strictly below 20 nM?
result: false

query: Does N#Cc1ccc(Nc2nccc(NCc3ccc(Br)cc3)n2)cc1 have IC50 strictly under 20 nM?
result: false

---

EC50 by entry:
- Tested on: Human immunodeficiency virus 1
- test: Antiviral activity against HIV 1 RES056 harboring reverse transcriptase K103N/Y181C double mutant infected in human MT4 cells assessed as protection against virus-induced cytopathogenicity after 5 days by MTT assay
- Assay type: functional, organism-based
- measurement setup: Human immunodeficiency virus 1, RES056, MT4, 120 h

See these solved cases before continuing.
COc1ccccc1CNc1ccnc(Nc2ccc(C#N)cc2)n1
> 27.3 µg/mL
Cc1ccc(CNc2ccnc(Nc3ccc(C#N)cc3)n2)cc1
> 0.79 µg/mL
N#Cc1ccc(Nc2nccc(NCc3ccccc3C(F)(F)F)n2)cc1
> 41.6 µg/mL

query: Item N#Cc1ccc(Nc2nccc(NCc3cccc(C(F)(F)F)c3)n2)cc1 has what recorded EC50?
result: > 0.71 µg/mL

query: I have this compound here, N#Cc1ccc(Nc2nccc(NCc3ccc(Cl)cc3)n2)cc1 , and I need its recorded EC50.
result: > 1.1 µg/mL

query: For the compound shown here, Cc1ccnc2c1NC(=O)c1cccnc1N2C1CC1 [NEVIRAPINE] , give the reported EC50.
result: ≥ 2.02 µg/mL

query: What value of EC50 has been recorded for this entry: N#Cc1ccc(Nc2nccc(NCc3ccccc3Cl)n2)cc1
result: > 92.3 µg/mL
